- experimentalProtocol: cAMP Responsive Elements (CRE) small molecule agonists, cell-based qHTS assay: qHTS cell viability counter screen (AID 2060914);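 further: viability read after 3 h of compound exposure; nearly all actives have a fitted effect of over 50% in size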
- conditionSummary: CRE-bla HEK293T viability, CellTiter-Glo luminescence, 5 h; series mostly up to 92.4 µM
Results filed as inconclusive are left out. The source made the active and inactive calls. The call rests on the fitted dose curve; in most records, active means well fitted cell-killing curve with a large enough effect in the repeat runs; inconclusive means weak or mixed curves, or effect the other way; inactive means flat fitted curve, though single readings scatter.
resultType: activity change, negative = cytotoxicity

molecule="CC(C=O)Cc1ccc(C(C)(C)C)cc1 (centres undefined)" resulttype="activity change, negative = cytotoxicity" experimentalvalue=inactive
molecule=CCCCCCCCCCCC(=O)[O][Sn]([CH2]CCC)([CH2]CCC)[O]C(=O)CCCCCCCCCCC resulttype="activity change, negative = cytotoxicity" experimentalvalue=inactive
molecule=CCCSS/C(CCO)=C(\C)N(C=O)Cc1cnc(C)nc1N resulttype="activity change, negative = cytotoxicity" experimentalvalue=inactive
molecule=CCCCCCCCO resulttype="activity change, negative = cytotoxicity" experimentalvalue=inactive
molecule=O=C1OC(=O)c2cc(-c3ccc4c(c3)C(=O)OC4=O)ccc21 resulttype="activity change, negative = cytotoxicity" experimentalvalue=inactive

The recorded activity change, negative = cytotoxicity for Nc1cc(Cl)c(O)c(Cl)c1 is inactive

The recorded activity change, negative = cytotoxicity for OCCOCCOCCOCCOCCO is inactive

The recorded activity change, negative = cytotoxicity for Oc1ccccc1F is inactive
